Reported pIC50 values for a set of compounds
assay system: Recombinant ROCK2 (amino acids 5-554) (Homo sapiens, UniProt O75116)
Construct: ROCK2 (amino acids 5-554); by word order, ROCK2 from SignalChem
Sequence (O75116 5-554): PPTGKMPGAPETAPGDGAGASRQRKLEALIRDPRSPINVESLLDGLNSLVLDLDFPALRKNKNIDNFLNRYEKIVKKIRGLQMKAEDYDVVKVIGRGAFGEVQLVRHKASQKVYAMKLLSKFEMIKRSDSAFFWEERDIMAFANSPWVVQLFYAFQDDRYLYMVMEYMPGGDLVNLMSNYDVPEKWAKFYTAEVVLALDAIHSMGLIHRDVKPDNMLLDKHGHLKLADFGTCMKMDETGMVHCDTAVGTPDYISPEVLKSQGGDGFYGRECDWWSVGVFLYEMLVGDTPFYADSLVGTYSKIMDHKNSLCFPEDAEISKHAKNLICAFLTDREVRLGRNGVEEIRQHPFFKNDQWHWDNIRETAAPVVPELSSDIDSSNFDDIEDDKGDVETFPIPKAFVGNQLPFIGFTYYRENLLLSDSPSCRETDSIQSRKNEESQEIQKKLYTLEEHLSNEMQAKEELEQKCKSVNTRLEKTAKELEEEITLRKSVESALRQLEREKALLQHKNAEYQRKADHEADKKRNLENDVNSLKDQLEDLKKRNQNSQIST
assay protocol: ROCK inhibition assay, LANCE Ultra TR-FRET kinase assay (ROCK2)
condition description: 4 μM ATP, 50 nM ULight-CREBtide substrate
pIC50: −log10 of the molar value.

compound: [2H]C([2H])([2H])NC(=O)c1cccc(Cn2cnc3cc(-c4cn[nH]c4Cl)ccc3c2=O)c1
assay readout: pIC50
recorded result: > 8.00

Answer with the recorded pIC50 for the compound listed here: `Cc1nocc1-c1ccc2c(=O)n(Cc3cc(F)cc(C(=O)NCC4CCN(C)CC4)c3)ccc2c1`
> 8.00

Answer with the recorded pIC50 for the compound listed here: Nc1cc(-c2ccc3c(=O)n(C(CO)c4cccc(Cl)c4)cnc3c2)ccn1 (stereo not shown)
7.00 to 8.00

Answer with the recorded pIC50 for the compound listed here: COc1cccc(C(C)n2ccc3cc(-c4ccnc(N)c4)ccc3c2=O)c1 (stereo not shown)
7.00 to 8.00

Answer with the recorded pIC50 for the compound listed here: Cc1nocc1-c1ccc2c(=O)n(Cc3cccc(C(=O)NCc4ccc(F)nc4)c3)cc(C(C)O)c2c1 (stereo not shown)
> 8.00

Answer with the recorded pIC50 for the compound listed here: `Cc1n[nH]cc1-c1cc2ccn(Cc3cc(F)cc(C(=O)NCC4CCN(C)CC4)c3)c(=O)c2cn1`
> 8.00

====

assay system: Recombinant ROCK1 (amino acids 1-477) (Homo sapiens)
Construct: Recombinant ROCK1 (amino acids 1-477); by word order, ROCK1 from Carna Biosciences
Sequence (Q13464 1-477): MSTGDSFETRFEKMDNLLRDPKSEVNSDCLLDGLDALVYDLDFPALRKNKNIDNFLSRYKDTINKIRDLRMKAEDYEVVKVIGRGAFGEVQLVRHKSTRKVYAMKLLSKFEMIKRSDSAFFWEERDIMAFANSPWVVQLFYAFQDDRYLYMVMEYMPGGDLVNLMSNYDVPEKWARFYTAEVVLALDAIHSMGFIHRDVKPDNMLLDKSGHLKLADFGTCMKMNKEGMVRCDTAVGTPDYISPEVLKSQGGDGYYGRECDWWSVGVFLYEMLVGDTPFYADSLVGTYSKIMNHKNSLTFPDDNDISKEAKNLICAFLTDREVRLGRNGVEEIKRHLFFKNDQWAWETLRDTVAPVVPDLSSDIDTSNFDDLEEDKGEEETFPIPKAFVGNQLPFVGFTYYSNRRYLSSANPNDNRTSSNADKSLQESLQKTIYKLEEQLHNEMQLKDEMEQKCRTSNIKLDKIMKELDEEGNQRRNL
assay protocol: ROCK inhibition assay, LANCE Ultra TR-FRET kinase assay (ROCK1)
condition description: 1 μM ATP, 50 nM ULight-CREBtide substrate
pIC50: −log10 of the molar value.
assay readout: pIC50

compound: CNC(=O)c1cccc([C@H](C)n2cnc3cc(-c4cn[nH]c4C(F)(F)F)ccc3c2=O)c1 [Compound 444]
recorded result: 7.00 to 7.96
//
compound: Nc1cc(-c2ccc3c(=O)n(Cc4cccc(C(=O)N[C@H]5CC[C@@H](O)CC5)c4)ccc3c2)ccn1 [Compound 192]
recorded result: 7.00 to 7.96
//
compound: Cn1nccc1-c1ccc2c(=O)n(Cc3cc(F)cc(C(=O)NC4CCOCC4)c3)ccc2c1 [Compound 166]
recorded result: 6.30 to 7.00
//
compound: [2H]C([2H])([2H])NC(=O)c1cccc(Cn2cnc3cc(-c4cn[nH]c4Cl)ccc3c2=O)c1 [Compound 405]
recorded result: > 8.00
//
compound: O=C(Nc1ccccc1)c1cccc(Cn2ccc3cc(-c4cn[nH]c4)ccc3c2=O)c1 [Compound 29]
recorded result: < 6.30
//
compound: CNC(=O)c1cc(Cl)cc(Cn2ccc3cc(-c4cn[nH]c4C(F)(F)F)ccc3c2=O)c1 [Compound 285]
recorded result: 6.30 to 7.00
//
compound: CN1CCc2cc(NC(=O)c3cccc(Cn4ccc5cc(-c6ccnc(N)c6)ccc5c4=O)c3)ccc2C1 [Compound 189]
recorded result: > 8.00
//
compound: CN(C)c1cccc(CNC(=O)c2cccc(Cn3cnc4cc(-c5cn[nH]c5C(F)F)ccc4c3=O)c2)c1 [Compound 400]
recorded result: 6.30 to 7.00
//
compound: Nc1cc(-c2ccc3c(=O)n(Cc4cccc(C(=O)N[C@H]5CC[C@H](O)CC5)c4)ccc3c2)ccn1 [Compound 193]
recorded result: 6.30 to 7.00
//
compound: C[C@H](c1cccc(C(=O)NCc2ccc(F)nc2)c1)n1cnc2cc(-c3cn[nH]c3N)ccc2c1=O [Compound 522]
recorded result: > 8.00

Give pIC50; test system Recombinant ROCK1 (amino acids 1-477) (Homo sapiens); compound Cc1nocc1-c1ccc2c(=O)n(Cc3cc(F)cc(C(=O)N[C@H]4C[C@H](O)C4)c3)ccc2c1 [Compound 138]
6.30 to 7.00

Give pIC50; test system Recombinant ROCK1 (amino acids 1-477) (Homo sapiens); compound Nc1cc(-c2ccc3c(=O)n(Cc4cccc(C(=O)Nc5ccc6c(c5)CCOC6)c4)ccc3c2)ccn1 [Compound 196]
6.30 to 7.00

Give pIC50; test system Recombinant ROCK1 (amino acids 1-477) (Homo sapiens); compound [2H]C([2H])([2H])NC(=O)c1cccc(Cn2ccc3cc(-c4cn[nH]c4Br)ccc3c2=O)c1 [Compound 513]
7.00 to 7.96
